System: A2780cis human cisplatin-resistant ovarian cancer cell line
Assay: SRB antiproliferative assay, A2780cis
Assay type: cell-based
Conditions: Homo sapiens, A2780cis; SRB, 72 h, mean ± SD; read-out: Cancer cell line, IC50, A-2780cis
Experimental: We determined the effect of various structural factors in the substrates on the antiproliferative activity against those selected to the study cell lines: the location and/or the presence of the prenyl group, the chalcone/flavanone skeleton and the presence of an O-methyl group at C-5 in flavanones. […] The in vitro antiproliferative activity was measured using SRB assay. […]
Would you mind telling me the reported pIC50 of each entry?
Give bare numbers, as −log10 of the molar value.

[ask] Please report the recorded pIC50 for COc1cc(O)c(CC=C(C)C)c(O)c1C(=O)/C=C/c1ccc(O)cc1 .
[reply] 5.09

For each of the compounds below, state pIC50.
1. COc1cc(O)c(CC=C(C)C)c(O)c1C(=O)CCc1ccc(O)cc1
2. CC(C)=CCc1c(O)cc(O)c2c1OC(c1ccc(O)cc1)CC2=O (centres unmarked)
3. O=C1C[C@@H](c2ccc(O)cc2)Oc2cc(O)cc(O)c21 [NG, Naringenin, reference compound]

[reply]
1: 4.94; 2: 4.18; 3: 3.96

[ask] Please report the recorded pIC50 for CC(C)=CCc1c(O)cc2c(c1O)C(=O)CC(c1ccc(O)cc1)O2 (centres unmarked) .
[reply] 4.09
